measured on: Cytochrome P450 2C9 (Homo sapiens) (UniProt P11712)
Sequence (P11712 whole entry, looked up): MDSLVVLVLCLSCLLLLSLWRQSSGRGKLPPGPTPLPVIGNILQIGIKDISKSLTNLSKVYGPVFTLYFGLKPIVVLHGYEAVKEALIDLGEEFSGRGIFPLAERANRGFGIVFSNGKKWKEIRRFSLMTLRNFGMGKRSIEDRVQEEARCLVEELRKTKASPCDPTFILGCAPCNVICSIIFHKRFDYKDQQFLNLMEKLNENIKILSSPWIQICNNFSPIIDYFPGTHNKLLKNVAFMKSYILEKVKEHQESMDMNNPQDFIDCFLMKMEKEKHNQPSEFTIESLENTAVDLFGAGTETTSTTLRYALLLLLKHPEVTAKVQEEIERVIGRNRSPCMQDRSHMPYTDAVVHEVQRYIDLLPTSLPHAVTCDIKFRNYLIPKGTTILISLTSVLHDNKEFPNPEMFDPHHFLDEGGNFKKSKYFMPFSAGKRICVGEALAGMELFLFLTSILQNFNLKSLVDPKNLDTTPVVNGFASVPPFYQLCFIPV
measurement protocol: Cytochrome panel assay with activity outcomes
applied conditions: recombinant CYP, pro-luciferin dealkylation, luminescence, p450-cyp2c9; series mostly up to 57.1 µM
In all, about 16,000 compounds went through this assay and about 4,000 (25%) were called active. Roughly 26% stayed inconclusive and do not appear here. The call rests on the fitted dose curve; in most records, active means well fitted curve in the direction sought with a large enough effect; inconclusive means small, poorly fitted or top-dose-only effect, or effect the other way; inactive means no such curve, though single readings can be large or run the other way. These entries were drawn from the full list.
Would you mind answering with one of these outcomes? True for active, False for inactive

> print(dat)
                                   compound  class.name
1  COc1cc(CNCCc2ccccc2)ccc1OCC(=O)NC(C)(C)C       False
2    CCCCCCN1C=CC(=C/C=C(\C#N)C(=O)OCC)C=C1        True
3  COc1cccc(Cn2c(=O)c(-c3cccc(C#N)c3)nc3cnc(Nc4ccccc4)nc32)c1       False
4      Cc1cccc(-c2nsc(SCC(=O)Nc3nccs3)n2)c1        True

Query: recorded result category for `CCCCN1CCCC[C@H]1C(=O)Nc1c(C)cccc1C` in this test
False

Query: recorded result category for COc1ccc(C(=O)N2CC3(CC(c4cccc([N+](=O)[O-])c4)=NO3)C[C@H]2C(=O)NCC(N)=O)cc1 (stereo partly drawn) in this test
False

Query: recorded result category for `COCCn1c(=O)c(-c2cccs2)nc2cnc(N3CCN(C)CC3)nc21` in this test
False

Query: recorded result category for `Cc1ccc(-n2c(-c3cc(C)n(C)n3)n[nH]c2=S)cc1` in this test
False

Query: recorded result category for `Nc1nc2c(ncn2COC(CO)CO)c(=O)[nH]1` in this test
False

Query: recorded result category for `COc1ncnc(NS(=O)(=O)c2ccc(N)cc2)c1OC` in this test
False

Query: recorded result category for O=c1c2ccccc2nc2n1C(CSCc1cccc(C(F)(F)F)c1)CS2 (stereo not drawn) in this test
True

Query: recorded result category for COc1ccc(CCNC(=O)CC(NS(=O)(=O)c2ccc(NC(C)=O)cc2)C(C)C)cc1OC (stereo not drawn) in this test
True

Query: recorded result category for `O=C1S/C(=C/c2ccc(N3CCOCC3)o2)C(=O)N1Cc1ccc(F)cc1` in this test
False

====

measured on: Cytochrome P450 2C9 (Homo sapiens) (UniProt P11712)
measurement protocol: Cytochrome panel assay with activity outcomes
applied conditions: recombinant CYP, pro-luciferin dealkylation, luminescence, p450-cyp2c9; series mostly up to 57.1 µM
About 4,000 (25%) of roughly 16,000 compounds were called active. Not shown: some 26% with an inconclusive outcome. Calls follow the shape of the dose curve; as a rule, active = well fitted curve in the direction sought with a large enough effect; inconclusive = small, poorly fitted or top-dose-only effect, or effect the other way; inactive = no such curve, though single readings can be large or run the other way. A selection follows.
Would you mind answering with one of these outcomes? active, inactive

Some entries whose results are on file:
compound	class name
O=c1c(-c2ccc(F)cc2)nc2cnc(N3CCNCC3)nc2n1-c1ccccc1	inactive
COc1ccc(C[C@@H]2c3cc(OC)c(OC)cc3CC[N@+]2(C)CCC(=O)OCCCCCOC(=O)CC[N@@+]2(C)CCc3cc(OC)c(OC)cc3[C@H]2Cc2ccc(OC)c(OC)c2)cc1OC	inactive
Cc1nc(SC(C(=O)c2ccccc2)c2ccccc2)n[nH]1 (configuration not stated)	active
CSC(=NC#N)N1CCN(c2ccc(Cl)cc2)CC1	active
O=C1/C(=C\c2ccc(Br)o2)SC(=Nc2ccccc2)N1c1ccccc1	active

Query: recorded result category for `Cc1noc(C)c1C(=O)N1CCC2(CC1)CN(c1ncccn1)C2` in this test
inactive

Query: recorded result category for `CCc1cc2c(NCc3ccco3)ncnc2s1` in this test
active

These data points were gathered from PubChem BioAssay AID1851.
